Cited source for all entries: ChEMBL document CHEMBL4340529

biological target: Protein cereblon/Cyclin-dependent kinase 4 (Homo sapiens) (UniProt P11802+Q96SW2); assay: Induction of CRBN-mediated CDK4 degradation in human MIAPaCa2 cells at 0.5 uM measured after 4 hrs by western blot analysis; assay type: cell-based
Sequence (P11802 2-303 limits assumed): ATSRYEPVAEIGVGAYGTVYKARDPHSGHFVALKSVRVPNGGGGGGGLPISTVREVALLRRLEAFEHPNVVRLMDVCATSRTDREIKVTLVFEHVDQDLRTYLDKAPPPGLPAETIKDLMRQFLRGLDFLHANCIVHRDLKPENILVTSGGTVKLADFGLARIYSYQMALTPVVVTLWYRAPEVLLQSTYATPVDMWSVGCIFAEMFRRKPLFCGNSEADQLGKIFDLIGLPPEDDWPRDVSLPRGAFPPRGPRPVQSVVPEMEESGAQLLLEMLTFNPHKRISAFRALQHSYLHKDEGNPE
Sequence (Q96SW2 whole entry partner): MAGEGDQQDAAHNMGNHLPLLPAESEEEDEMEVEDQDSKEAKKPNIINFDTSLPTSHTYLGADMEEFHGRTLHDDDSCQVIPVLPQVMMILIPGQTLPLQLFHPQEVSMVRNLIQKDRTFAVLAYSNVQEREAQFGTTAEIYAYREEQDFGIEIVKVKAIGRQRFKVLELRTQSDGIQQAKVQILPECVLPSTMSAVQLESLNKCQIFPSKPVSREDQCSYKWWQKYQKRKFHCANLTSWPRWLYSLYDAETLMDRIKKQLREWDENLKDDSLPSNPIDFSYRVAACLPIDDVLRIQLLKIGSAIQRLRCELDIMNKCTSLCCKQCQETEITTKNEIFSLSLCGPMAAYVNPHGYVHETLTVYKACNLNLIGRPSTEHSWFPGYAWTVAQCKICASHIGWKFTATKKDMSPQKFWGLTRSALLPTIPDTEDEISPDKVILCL
Activity calls are given as the source filed them. No cut-off for these calls is given here.
Outcomes: label 1 for active, label 0 for inactive

Compound	Assigned category
CC(=O)c1c(C)c2cnc(Nc3ccc(N4CCN(CCCCCC(=O)Nc5cccc6c5C(=O)N(C5CCC(=O)NC5=O)C6=O)CC4)cn3)nc2n(C2CCCC2)c1=O (centres undefined)	label 1
CC(=O)c1c(C)c2cnc(Nc3ccc(N4CCN(CC(=O)NCCCCNc5cccc6c5C(=O)N(C5CCC(=O)NC5=O)C6=O)CC4)cn3)nc2n(C2CCCC2)c1=O (centres undefined)	label 1
CC(=O)c1c(C)c2cnc(Nc3ccc(N4CCN(CC(=O)NCCCOCCOCCOCCCNc5cccc6c5C(=O)N(C5CCC(=O)NC5=O)C6=O)CC4)cn3)nc2n(C2CCCC2)c1=O (centres undefined)	label 0
CC(=O)c1c(C)c2cnc(Nc3ccc(N4CCN(CCOCCOCCOc5cccc6c5C(=O)N(C5CCC(=O)NC5=O)C6=O)CC4)cn3)nc2n(C2CCCC2)c1=O (centres undefined)	label 1
